The measurements presented in this section are drawn from the nanobody polyreactivity screen of Harvey et al. (2022).

Assay: yeast display, Sf9 membrane polyspecificity reagent, FACS + sequencing; frameworks hold sequencing errors
measuredParameter: polyreactivity (PSR sort gate)

{"columns": ["chainSequence", "valueObserved"],
 "data": [
  ["QVQLVESGGGLVQAGGSLRLSCAASGRIFKSYAMGWYRQAPGKERELVASISYTGGSTYYADSVKGRFTISRDNAKNTVYLQMNSLKPEDTAVYYCAAKRVRSAGSYGYWGQGTQVTVSS", "low polyreactivity"],
  ["QVQLVESGGGLVQAGGSRRLRCAASGSIISSYALGWYRQAPGQEMEFVAAISTGGRTYYADSVKGRFTISRDNGKNTVYLQMNSLKPEDTAVYYCAADGPLPHKVGTHTLDYWGQGTQVTVSS", "low polyreactivity"],
  ["QVQLVESGGGLVQAGGSLRLSCAASGSTFWVYTMGWYRQAPGKERELVAAINYSDGSTYYADSVKGRFTISRDNAKNTVYLQMNRLKPEDTAVYYCAAGSDPTGRRYDYWGQGTQVTVSS", "low polyreactivity"]
]}

---

Assay: yeast display, Sf9 membrane polyspecificity reagent, FACS + sequencing; frameworks hold sequencing errors
measuredParameter: polyreactivity (PSR sort gate)

Consider the following illustrative entries.
{"columns": ["chainSequence", "polyreactivity (PSR sort gate)"],
 "data": [
  ["QVQLVESGGGLVQAGGSLRLSSAHSAIIFCLNSMGWYRQEPGKERELVAAITITDGSTYYADSVKGRFTISRDNAKNTVYLQMNSLKPEDTAVYYCNADAIVSPYRLWTVTFYYWGQGTQVTVSS", "low polyreactivity"],
  ["QVQLVESGGGLVQAGGSLRLSCAASGSIFEVDALGWYRQAPGKERELVAAITSSDITYYADSVKGRFTISRDHAKTTVYLQMNSLKPEDTAVYYCNGEPPYRVKRSDYWGQGTQVTVSS", "low polyreactivity"],
  ["QVQLVESGGGLVQAGGSLRLSCAASGSTFGGYAMGRYRQAPGKERELVAAISNGDRTNYADSVKGRFTISRDNAKNTVYLQKNSLKPEETAVYYCATRTLFRYPNYGNNLWGYDYWGQGTQVTVSS", "low polyreactivity"],
  ["QVQLVESGGGLVQAGGSLRLSCADSGPTIFYYAMGWYRTAPGKERELVAAIRRSGGRTRYADSVKGRFTISRDNAKNTVYLQMNSLKPEDTAVYYCAADDGTHRRGYDYWGQGTQVTVSS", "low polyreactivity"]
]}

Next up:
Input: Look at this sequence and give its reported polyreactivity (PSR sort gate). `QVQLVESGGGLVQAGGSLRLSCAASGRTFAINAMGWYRQAPGKERELVADITTDGSTYYADSVKGRFTISRDNAKNTVYLQMNSLKPEDTAVYYCATDSLDYFIRFKQFGYWGQGTQVTVSS`
Output: low polyreactivity

---

Experiment: yeast display, Sf9 membrane polyspecificity reagent, FACS + sequencing; frameworks hold sequencing errors
measuredParameter: polyreactivity (PSR sort gate)

Consider the following illustrative entries.
{"columns": ["chainSequence", "polyreactivity (PSR sort gate)"],
 "data": [
  ["QVQLVESGGGLVQAGGSLRLSCAASGSTLDKYAMGWYRQAPGKERELVAAISSSGGSTYYADSVKGRFTISRDNAKNTVYLQMNSLKPEDTAVYYCAARFFRGRYLDDYWGQGTQVTVSS", "high polyreactivity"],
  ["QVQLVESGGGLVQAGGSLRLSCAASGSIFRHYTMGWYRQAPGKERELVAVISSGGNTNYADSVKGLFTISRDNAKYTDYLQLNSLKPEDTAVYYCAAGGYDVYHDPYYYWGQGTQVTVSS", "high polyreactivity"],
  ["QVQLVESGGGLVQAGGSLRLTCAASGIIFYGYAMGCYRQAPGKERELVADISFSGGRTYYSDSVKGRFTISRDNAKNTVYLQMNRLKQEDTAVYYCAKRRFYRTSQYVKYDYWGQGTQVTVSS", "low polyreactivity"],
  ["QVQLVESAGGLVQAGRSHRLSFAASGSIFYHNAMGWYRQAPGKERELVAAISGRGGSTYYADSVKGRFTISRDNAKNTVYLQMNSLKPEDTAVYYCAADARYQNGGLYYWGQGTQVTVSS", "high polyreactivity"]
]}

Input: Look at this sequence and give its reported polyreactivity (PSR sort gate). `QVQLVESGGGLVQAGGSLRLSCAASGRTFWYNARGWYRQAPGKERELVAAITRGGGRTYYADSVKGRFTISRDNAKNTVYLQMNSPKPEDTAVYYCADDSHYDMNYWGQGTQVTVSS`
Output: low polyreactivity

---

Assay: yeast display, Sf9 membrane polyspecificity reagent, FACS + sequencing; frameworks hold sequencing errors
measuredParameter: polyreactivity (PSR sort gate)

{"columns": ["chainSequence", "valueObserved"],
 "data": [
  ["QVQLVESGGGLVQAGGSLRLSCAASGFISAYYAMGWYRQAPGKEMELVAAISWNGGRTFYADSVKGRFTISRDNAKNTVYLQMNSLKPEDTAVYYCAADGRLRGYGYWGQGTQVTVSS", "high polyreactivity"],
  ["QVQLVESGGGLDQAGGSLRLSCAASGIIFSQYAMGWYRQAPGKERELVAGITRSGGSTYYADSVKGRFTISRDNAKNTVYLQMNSLKPEDTAVYYCAAVQRYEYGYWGQGTQVTVSS", "high polyreactivity"]
]}

---

Assay: yeast display, Sf9 membrane polyspecificity reagent, FACS + sequencing; frameworks hold sequencing errors
measuredParameter: polyreactivity (PSR sort gate)

{"columns": ["chainSequence", "polyreactivity (PSR sort gate)"],
 "data": [
  ["QVQLVESGGGLVQAGGSLRLICAASGSTFHTYAMGWYRQAPGKERELVATITWDGGRTYYADSVKGRFTISRDNAKNTVYLQMNSLKPEDPAVYYCAADYWSIEMDYWGQGTQVTVSS", "low polyreactivity"],
  ["QVQLVESGGGLVQAGGSLRLSCAASGSTFSANGMGWYRQAPGKERELVAAISARGGITYYADSVKGRFTISRDNAKNTVYLQMNSVKPEDTAVYYCNQRKYYRSTKYNYWGQGTQVTVSS", "high polyreactivity"],
  ["QVQLVESGGGLVQAGGSLRLSCAASGNTFYLYAMGWYRKAPGKERELVASITGGTRTNYADSVKGRFTISRDNAKNTVYLQMNSLKPEDTAVYYCAVRYYWRRMNYWGQGTQVTVSS", "high polyreactivity"],
  ["QVQLVESGGGLVQAGGSLRLSCAASGRIFVYYTMGWYRQAPGKERELVAAITGSGGSTYYADSVKGRFTISRDNAKNTVYLQMNCLKPEDTAVYYCAARYASTGGGYKYYYWGQGTQVTVSS", "high polyreactivity"]
]}

Next up:
Input: Look at this sequence and give its reported polyreactivity (PSR sort gate). `QFQLVESGGGLVQAGGSLRLSCAASGRIFRGNAMGWYRQAPGKERELVAAILTGVSTYYADSVKGRFTISRDNAKNTVYLQMNSLKPEDTAVYYCAAERPSRRSGYEYWGQGTQVTVSS`
Output: low polyreactivity

---

Experiment: yeast display, Sf9 membrane polyspecificity reagent, FACS + sequencing; frameworks hold sequencing errors
measuredParameter: polyreactivity (PSR sort gate)

Consider the following illustrative entries.
{"columns": ["chainSequence", "measuredParameter", "valueObserved"],
 "data": [
  ["QVQLVESGGGLDQAGGSLRLSCAASGSISQVYAMGWYRQATGKERELVAVINDADDTSYADSVKGRFTISRDNAKNTVYLQMNSLKPEDTAVYYCAAESSYFVALTQFYTVEFYYWGQGTQLTVSS", "polyreactivity (PSR sort gate)", "low polyreactivity"],
  ["QVQLVESGGGLVQAGGSLRLICAASGRTLYLYAMGWSRQAPGKEPELVAAIDWRGTSTYYADSVKGRFTISRDNAKNTVYLQMNSLKPEDTAFYYCNARFRSYLRWYQRDYWGQGTQVTVSS", "polyreactivity (PSR sort gate)", "low polyreactivity"],
  ["QVQLVESGGGLVQAGGSLRLSCAASGITFPGNAMGWYRQAPGKERELVAGISDGDSTNYADSVKGRFTISRDNAKNTVYLQMNSLKPEDTAVYYCNAQGTTETSGGGFFRGMDYWGQGTQVTVSS", "polyreactivity (PSR sort gate)", "low polyreactivity"],
  ["QVQLVESGGGLVQAGGSLRLSCSASGIIFGWYAMGWYRKAPGKEREFVATISWSGASTYYADSVKGRFTISRDNAKNTVYLQLNSLKPEDTAVYYCAAVGRRQAFGRRDYWGQGKQVTVSS", "polyreactivity (PSR sort gate)", "high polyreactivity"]
]}

Next up:
Input: Look at this sequence and give its reported polyreactivity (PSR sort gate). `QVQLVESGGGLVQAGCSLRLSCAAPGFTLKRYAMGWYRQAPGKERELVAAISRTGGSTYHADSVKGRFTITRDNAKNTVYLQMNSLKPEVTAVYYCAAATSPGIYDHWGQGTQLTVSS`
Output: high polyreactivity

---

Test: yeast display, Sf9 membrane polyspecificity reagent, FACS + sequencing; frameworks hold sequencing errors
measuredParameter: polyreactivity (PSR sort gate)

{"columns": ["chainSequence", "measuredParameter", "valueObserved"],
 "data": [
  ["QVQLVESGGGLVQARGSLRLSCAASGRTFDLYAMGWYRQSPGKERELVAAITKGGGSTYYADSVKGRFTISRDNAKNTVYLQMNSLKPEDTAVYYCAARKYKRIYRISSGIGYYWGQGTQVTVSS", "polyreactivity (PSR sort gate)", "high polyreactivity"],
  ["QVQLVESGGGLVQAGGRLRLSCAASGRIFGYYAIGWYRQAPGKERELVARISRGGSTYYADSVKGRFTISRDNAKNTVYLQMNSLKPEETAVYSCAATRSGYTSYTDDSGGQGTQVTVSS", "polyreactivity (PSR sort gate)", "high polyreactivity"]
]}
